Would you mind telling me the reported MIC of each entry?
- Test system: Leuconostoc lactis
- protocol-details: agar dilution MIC, lactic acid bacteria
- Type: cell-based
- assay-setup: Leuconostoc lactis (mean of 2), brain-heart infusion agar
Your answer should be a plain number; it is taken to be in mg/L.

Tell me MIC of CNC(CC(C)C)C(=O)NC1C(=O)NC(CC(N)=O)C(=O)NC2C(=O)NC3C(=O)NC(C(=O)NC(C(=O)O)c4cc(O)cc(O)c4-c4cc3ccc4O)C(OC3CC(C)(N)C(O)C(C)O3)c3ccc(c(Cl)c3)Oc3cc2cc(c3OC2OC(CO)C(O)C(O)C2OC2CC(C)(NCc3ccc(OC(F)(F)F)cc3)C(O)C(C)O2)Oc2ccc(cc2Cl)C1O (centres unmarked) when tested on Leuconostoc lactis.
8.0

Please report MIC with Leuconostoc lactis for item CNC(CC(C)C)C(=O)NC1C(=O)NC(CC(N)=O)C(=O)NC2C(=O)NC3C(=O)NC(C(=O)NC(C(=O)O)c4cc(O)cc(O)c4-c4cc3ccc4O)C(OC3CC(C)(N)C(O)C(C)O3)c3ccc(c(Cl)c3)Oc3cc2cc(c3OC2OC(CO)C(O)C(O)C2OC2CC(C)(NCc3ccc(Cc4ccccc4)cc3)C(O)C(C)O2)Oc2ccc(cc2Cl)C1O (centres unmarked) .
64
